Data origin, for the record: ChEMBL document CHEMBL1148726

test system: Hepatitis C virus; experiment: Antiviral activity against Hepatitis C virus infected Huh7 cells; format: functional, organism-based, Hepacivirus hominis, Huh-7; conditions: Hepatitis C virus, Huh-7
recordedEndpoint: EC50 (nM)

molecule	targetSystem	EC50, nM
Cc1cc(C)n2nc(CC3=C(O)CC(CCc4ccc(S(C)(=O)=O)c(Cl)c4)(C4CCCC4)OC3=O)nc2n1 (configuration not stated)	Hepatitis C virus	610
COc1ccc(CCC2(C3CCCC3)CC(O)=C(Sc3nc4nc(C)cc(C)n4n3)C(=O)O2)cc1Cl (configuration not stated)	Hepatitis C virus	3250
COc1ccc(CCC2(C3CCCC3)CC(O)=C(Cc3nc4nc(C)cc(C)n4n3)C(=O)O2)cc1Cl (configuration not stated)	Hepatitis C virus	330

(A) COc1ccc(CCC2(C3CCCC3)CC(O)=C(Cc3nc4nc(C)cc(C)n4n3)C(=O)O2)cc1C (configuration not stated)
(B) Cc1cc(C)n2nc(CC3=C(O)CC(CCc4ccc(C(C)(C)NS(C)(=O)=O)c(F)c4)(C4CCCC4)OC3=O)nc2n1 (configuration not stated)
(C) CCOc1ccc(CCC2(C3CCCC3)CC(O)=C(Cc3nc4nc(C)cc(C)n4n3)C(=O)O2)cc1Cl (configuration not stated)
// ranking: key=EC50, reverse=True Please list the labels in the order you were asked to rank them. A, C, B
(A: 1200 nM, C: 320 nM, B: 110 nM)

----------
assay: Inhibition of HCV 1b NS5B delta21 RNA dependent RNA polymerase by enzymatic assay; design: species or system Hepacivirus hominis
pIC50: −log10 of the molar value.
recordedEndpoint: pIC50

compound	numericResult
Cc1cc(C)n2nc(CC3=C(O)CC(CCc4ccc(C(C)(C)C#N)c(F)c4)(C4CCCC4)OC3=O)nc2n1 (stereo in doubt; 22)	8.52
COc1ccc(CCC2(C3CCCC3)CC(O)=C(Sc3nc4nc(C)cc(C)n4n3)C(=O)O2)cc1Cl (stereo not drawn)	7.44
Cc1cc(C)n2nc(CC3=C(O)CC(CCc4ccc(C(C)(C)C#N)c(Cl)c4)(C4CCCC4)OC3=O)nc2n1 (stereo not drawn)	8.70
Cc1cc(C)n2nc(CC3=C(O)CC(CCc4ccc(S(C)(=O)=O)c(Cl)c4)(C4CCCC4)OC3=O)nc2n1 (stereo not drawn)	7.22
COc1ccc(CCC2(C3CCCC3)CC(O)=C(Cc3nc4nc(C)cc(C)n4n3)C(=O)O2)cc1F (stereo not drawn)	7.82

(A) Cc1cc(C)n2nc(CC3=C(O)CC(CCc4ccc(C(C)(C)NS(C)(=O)=O)c(F)c4)(C4CCCC4)OC3=O)nc2n1 (stereo not drawn)
(B) COc1ccc(CCC2(C3CCCC3)CC(O)=C(Cc3nc4nc(C)cc(C)n4n3)C(=O)O2)cc1C (stereo not drawn)
Hi team, can someone confirm which has the larger pIC50: A or B ? Thanks. Pick one; state its label. A
(A: 7.77, B: 7.27)

----------
assay: Bioavailability in rat at 25 mg/kg, po; assay type: ADME, organism-based; details: in vivo
recordedEndpoint: bioavailability (%)
State just the number; it will be interpreted in %.

Note to self: bioavailability recorded for COc1ccc(CCC2(C3CCCC3)CC(O)=C(Sc3nc4nc(C)cc(C)n4n3)C(=O)O2)cc1Cl (stereo unspecified) was 2

----------
test: Permeability from basolateral to apical side of the Caco-2 cell membrane; type: ADME, cell-based; conditions: human
recordedEndpoint: Papp B→A (×10⁻⁶ cm/s)

(a) COc1ccc(CCC2(C3CCCC3)CC(O)=C(Sc3nc4nc(C)cc(C)n4n3)C(=O)O2)cc1Cl (configuration not stated)
(b) COc1ccc(CCC2(C3CCCC3)CC(O)=C(Cc3nc4nc(C)cc(C)n4n3)C(=O)O2)cc1Cl (configuration not stated)
Of the two listed items, a and b , which carries the larger Papp B→A figure? Indicate your choice by writing its label. b
